# SUBJECT_OF_TEST: cynomolgus PSMA, full-length, expressed on CHO cells (cynomolgus, UniProt A0A2K5VNZ0 1-750)
# PROTOCOL_DETAILS: cell-based or functional assay
His-ZAP cell killing, cyno PSMA Average EC50: recorded values
Answer format: numeric, nM implied, no suffix.

Consider the worked cases shown below.
1) 1.1-6GS-2.1 (bispecific antibody, not shown: small tags and cut ends) EVQLLESGGGLVQPGGSLRLSCAASGFSFSSYAMSWVRQAPGKGLEWVSSIGENDGTTDYADSVKGRFTISRDNSKSMLYLQMNSLRVEDTAVYYCVKDGVHWGQGTLVTVSSGGGGSGGGGSGGGGSGGGGSGGGGSGGGGSEVQLVESGGGVVQPGRSLRLSCAASGFSFSGYGMHWVRQAPGKGLEWVAYISYDGSNKYYADSVKGRFTISRDNSKNTLYLQMNSLRAEDTAVYYCAKDPAWGLRLGESSSYDFDIWGQGTMVTVSS | 0.012
2) 1.18-6GS-2.17 (bispecific antibody, not shown: small tags and cut ends) EVQLLESGGGLVQPGGSLRLSCAASGFSFSSYALSWVRQAPGKGLEWVSSIGENNATTDYAASVKGRFTISRDNSKNTLYLQMNSLRVEDTAVYYCVKDGVHWGQGTLVTVSSGGGGSGGGGSGGGGSGGGGSGGGGSGGGGSEVQLVESGGGVVQPGRSLRLSCAASGFSFSGYGMHWVRQAPGKGLEWVAYISYDASNKYYADNVKGRFTISRDNSKNTLYLQMNSLRAEDTAVYYCAKDPAWGLRLGESSSYDFDIWGQGTMVTVSS | 0.0056
3) 1.18-6GS-2.15 (bispecific antibody, not shown: small tags and cut ends) EVQLLESGGGLVQPGGSLRLSCAASGFSFSSYALSWVRQAPGKGLEWVSSIGENNATTDYAASVKGRFTISRDNSKNTLYLQMNSLRVEDTAVYYCVKDGVHWGQGTLVTVSSGGGGSGGGGSGGGGSGGGGSGGGGSGGGGSEVQLVESGGGVVQPGRSLRLSCAASGFSFSGYGLHWVRQAPGKGLEWVAYISYDKSNKYYADKVKGRFTISRDNSKNTLYLQMNSLRAEDTAVYYCAKDPAWGLRLGESSSYDFDIWGQGTMVTVSS | 0.01
4) 1.18-6GS-2.22 (bispecific antibody, not shown: small tags and cut ends) EVQLLESGGGLVQPGGSLRLSCAASGFSFSSYALSWVRQAPGKGLEWVSSIGENNATTDYAASVKGRFTISRDNSKNTLYLQMNSLRVEDTAVYYCVKDGVHWGQGTLVTVSSGGGGSGGGGSGGGGSGGGGSGGGGSGGGGSEVQLVESGGGVVQPGRSLRLSCAASGFSFSGYGTHWVRQAPGKGLEWVAYISYDGSNKYYAAPVKGRFTISRDNSKNTLYLQMNSLRAEDTAVYYCAKDAAWGLRLGESSSYDFDIWGQGTMVTVSS | 0.014
5) 1.1-6GS-2.22 (bispecific antibody, not shown: small tags and cut ends) EVQLLESGGGLVQPGGSLRLSCAASGFSFSSYAMSWVRQAPGKGLEWVSSIGENDGTTDYADSVKGRFTISRDNSKSMLYLQMNSLRVEDTAVYYCVKDGVHWGQGTLVTVSSGGGGSGGGGSGGGGSGGGGSGGGGSGGGGSEVQLVESGGGVVQPGRSLRLSCAASGFSFSGYGTHWVRQAPGKGLEWVAYISYDGSNKYYAAPVKGRFTISRDNSKNTLYLQMNSLRAEDTAVYYCAKDAAWGLRLGESSSYDFDIWGQGTMVTVSS | 0.0078

Could you now consider this next binder?
[in] Name the recorded His-ZAP cell killing, cyno PSMA Average EC50 for 1.16-6GS-2.15 (bispecific antibody, not shown: small tags and cut ends) EVQLLESGGGLVQPGGSLRLSCAASGFSFSSYALSWVRQAPGKGLEWVSSIGENNHTTDYADTVKGRFTISRDNSKNTLYLQMNSLRVEDTAVYYCVKDGVHWGQGTLVTVSSGGGGSGGGGSGGGGSGGGGSGGGGSGGGGSEVQLVESGGGVVQPGRSLRLSCAASGFSFSGYGLHWVRQAPGKGLEWVAYISYDKSNKYYADKVKGRFTISRDNSKNTLYLQMNSLRAEDTAVYYCAKDPAWGLRLGESSSYDFDIWGQGTMVTVSS .
[out] 0.011
